- Test system: Rhipicephalus microplus
- Run description: Rhipicephalus (Boophilus) microplus in-vitro contact test, larval cattle tick, strain Parkhurst (BOOPMI Cont)
- Assay type: in vivo
- Recorded conditions: application rate 5 μg/cm^2 (=500 g/ha), tick larvae, after 48 hours, read-out: activity (efficacy: 100% means all larvae are dead or moribund)
- Experimental: Rhipicephalus (Boophilus) Microplus—In-Vitro Contact Tests Larval Cattle Tick (Strain Parkhurst, Resistant Against Synthetic Pyrethroids) (BOOPMI Cont) 9 mg compound is solved in 1 mL acetone and diluted with acetone to the desired concentration. 250 μL of the test solution is filled in 25 mL glass test tubes and homogeneously distributed on the inner walls by rotation and tilting on a shaking device (2 h at 30 rpm). […]
Attribute measured: pest or weed control at 5 µg/cm2 (%)

INSERT INTO measurements (compound, measured_value) VALUES
  ('C[C@H](NC(=O)c1cc(C(F)(F)F)cc(C(F)(F)F)c1)c1ncnn1-c1ncc(Cl)s1 [II-40]', 100),
  ('C[C@H](NC(=O)c1cc(C(F)(F)F)cc(C(F)(F)F)c1)c1ncnn1-c1ccc(C(=O)N(C)CC2CC2)cn1 [II-73]', 100),
  ('C[C@H](NC(=O)c1cc(OC(F)F)cc(C(F)F)c1)c1ncnn1-c1ccc(C#N)cn1 [II-116]', 100);

From: patent US20220274947A1
